Target: T1, cSNK:BSA conjugate (bovine, head-to-tail cyclized; conjugated to BSA carrier)
T1 construct: also called BSA-cSNK
T1 sequence (P02769 25-607 limits assumed): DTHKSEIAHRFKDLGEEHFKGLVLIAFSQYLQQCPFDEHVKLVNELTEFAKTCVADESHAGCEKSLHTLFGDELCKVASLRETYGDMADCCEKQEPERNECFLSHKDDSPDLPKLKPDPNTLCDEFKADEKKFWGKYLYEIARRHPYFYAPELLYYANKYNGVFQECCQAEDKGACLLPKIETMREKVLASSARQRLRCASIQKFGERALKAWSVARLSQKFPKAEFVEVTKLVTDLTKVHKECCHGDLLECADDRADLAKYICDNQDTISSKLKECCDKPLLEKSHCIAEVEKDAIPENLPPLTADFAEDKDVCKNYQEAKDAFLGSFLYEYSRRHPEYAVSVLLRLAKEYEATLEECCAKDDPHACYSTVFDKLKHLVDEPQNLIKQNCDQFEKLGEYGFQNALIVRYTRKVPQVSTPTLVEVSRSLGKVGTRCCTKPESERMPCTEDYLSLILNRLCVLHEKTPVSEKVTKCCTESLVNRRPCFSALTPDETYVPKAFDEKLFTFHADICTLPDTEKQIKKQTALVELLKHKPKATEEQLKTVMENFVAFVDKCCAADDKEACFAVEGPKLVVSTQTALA
Assay: BLI 2:1 fit, site 2 (kdis2); 1.56 nM row
MEASUREMENT_NAME: koff (s⁻¹)

[[record]]
binder = "hu5E3-IgG1 (antibody, V domains shown, human IgG1/kappa; also called humanized 5E3 IgG1; IHA variant) VH: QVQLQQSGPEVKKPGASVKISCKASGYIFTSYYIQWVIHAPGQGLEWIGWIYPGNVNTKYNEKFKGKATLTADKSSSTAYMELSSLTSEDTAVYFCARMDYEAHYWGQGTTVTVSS VL: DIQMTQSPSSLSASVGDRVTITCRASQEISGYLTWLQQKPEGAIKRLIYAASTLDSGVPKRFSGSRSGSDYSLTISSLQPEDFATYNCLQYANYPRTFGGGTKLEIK"
number = 0.012

[[record]]
binder = "rehu5E3-IgG4 (antibody, V domains shown, human IgG4/kappa; also called IgG4 rehu version) VH: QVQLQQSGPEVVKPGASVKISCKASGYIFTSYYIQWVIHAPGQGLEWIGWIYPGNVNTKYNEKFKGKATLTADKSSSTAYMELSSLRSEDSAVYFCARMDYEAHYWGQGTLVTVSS VL: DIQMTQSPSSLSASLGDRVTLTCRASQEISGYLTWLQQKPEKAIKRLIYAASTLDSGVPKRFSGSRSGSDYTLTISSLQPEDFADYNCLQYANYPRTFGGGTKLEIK"
number = 0.0175

[[record]]
binder = "murine monoclonal antibody 5E3 (antibody, V domains shown, mouse antibody of the 5E3 hybridoma; also called murine 5E3; m5E3) VH: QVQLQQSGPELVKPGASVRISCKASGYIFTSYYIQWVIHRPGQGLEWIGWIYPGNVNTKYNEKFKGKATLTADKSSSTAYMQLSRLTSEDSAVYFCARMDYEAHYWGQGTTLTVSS VL: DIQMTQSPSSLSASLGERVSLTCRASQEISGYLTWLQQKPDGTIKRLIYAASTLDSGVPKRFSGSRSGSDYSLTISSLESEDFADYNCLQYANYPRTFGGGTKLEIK"
number = 0.0226

[[record]]
binder = "hu5E3-IgG4 (antibody, V domains shown, human IgG4/kappa; also called humanized 5E3 IgG4) VH: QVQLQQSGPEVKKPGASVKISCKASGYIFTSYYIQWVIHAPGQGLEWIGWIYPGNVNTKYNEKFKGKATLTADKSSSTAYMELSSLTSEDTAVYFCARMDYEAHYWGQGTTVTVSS VL: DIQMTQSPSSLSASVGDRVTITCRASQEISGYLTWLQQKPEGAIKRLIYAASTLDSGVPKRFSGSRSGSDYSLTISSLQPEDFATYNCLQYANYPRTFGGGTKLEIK"
number = 0.0229

